assay.summary: S16 Schwann cell viability assay (CellTiter-Glo assay) (AID 624031); also: nearly all actives have a fitted effect of over 70% in size
details: S16 rat Schwann cells viability, 24 h; series mostly up to 57.5 µM
Results filed as inconclusive are left out. Active and inactive are the calls of the source. Calls follow the shape of the dose curve; as a rule, active = well fitted cell-killing curve with a large enough effect; inconclusive = small, poorly fitted or top-dose-only effect, or effect the other way; inactive = flat fitted curve, though single readings scatter.
Your answer must be one of the following: active, inactive

Before answering, review these 4 worked examples.
1. Cc1cccc([C@H](C)c2cnc[nH]2)c1C : inactive
2. O=C(O)c1ccccc1-c1c2cc(Br)c(=O)cc-2oc2[c]([Hg])c(O)c(Br)cc12 : inactive
3. CCN(CC)CCO[C@H]1CC[C@@]2(C)C(=CC[C@@H]3[C@H]2CC[C@]2(C)C(=O)CC[C@H]32)C1 : inactive
4. C[N+](C)(C)CC(=O)[O-] : inactive

Please examine the following record next.
Tell me the assay call for Oc1cc[c]([Hg][Cl])cc1 please.
active

---

assay.summary: qHTS for Inhibitors of the Functional Ribonucleoprotein Complex (vRNP) of Lymphocytic Choriomeningitis Arenaviruses (LCMV): Viability assay - alamar blue signal for LCMV Primary Screen (AID 1347085); also: nearly all actives have a fitted effect of over 80% in size
details: alamar blue viability counter-screen, LCMV vRNP screen cells; series mostly up to 57.5 µM
Inconclusive results are not listed. The source made the active and inactive calls. The call rests on the fitted dose curve; tested in HEK293 reporter line.
Your answer must be one of the following: active, inactive

Before answering, review these 5 worked examples.
1. Cc1ccc(C(C)(O)c2nc3ccccc3s2)c(C)c1 (configuration not stated) : inactive
2. COc1cc(C(O)CO)ccc1O (configuration not stated) : inactive
3. NCCC(=O)O : inactive
4. CC1CCC2C(C)C3C(CC4[C@@H]5CC=C6C[C@@H](O)CC[C@]6(C)C5CC[C@]34C)N2C1 (some centres not stated) : inactive
5. CCC(=O)O[C@]1(C(=O)CO)CC[C@H]2[C@@H]3CCC4=CC(=O)CC[C@]4(C)[C@@H]3CC[C@@]21C : inactive

Tell me the assay call for CN(C)c1ccc(C(=O)NCCCCCCC(=O)NO)cc1 please.
active

Tell me the assay call for CCc1nc(-c2cccc(C)c2)c(-c2ccnc(NC(=O)c3ccccc3)c2)s1 please.
inactive

---

target: Glutathione peroxidase 1 (Homo sapiens)
assay.summary: Primary qHTS Assay for Inhibitors of Recombinant Selenoprotein Glutathione Peroxidase 1 (GPX1) (AID 1845191); also: nearly all actives have a fitted effect of over 65% in size
details: recombinant GPX1, GR-coupled NADPH fluorescence, 15 min; series mostly up to 48.8 µM
Inconclusive results are not listed. The source made the active and inactive calls. Calls follow the shape of the dose curve; as a rule, active = well fitted inhibition curve with a large enough effect; inconclusive = small, poorly fitted or top-dose-only effect; inactive = flat fitted curve, though single readings scatter.
observation.type: activity, negative = inhibition

1) O=C(OC[C@H]1O[C@@H](Oc2ccc(O)cc2CO)[C@H](O)[C@@H](O)[C@@H]1O)c1ccccc1 : inactive
2) N#Cc1ccc(N2CCN(C(=O)COc3ccc4[nH]cc(CCN)c4c3)CC2)cc1 : inactive
3) C=C1C[C@]2(O)[C@@]3(C)CCC(=O)C(C)(C)C3=C(O)C(=O)[C@@]2(C)[C@@H]2C(=O)O[C@@](C)(C(=O)OC)C(=O)[C@@]12C : inactive
4) CCCCOC(=O)c1ccnc2cc(C(OCCN3CCCCC3)c3ccccc3Cl)sc12 (stereo not given) : inactive
5) Cc1ccccc1C1=CCN(C)CC1 : inactive

Report activity, negative = inhibition, nothing else, for this compound: C/C=C(\C)C(=O)O[C@H]1CC2C(=C1C)[C@H]1OC(=O)[C@](C)(O)[C@]1(O)[C@H](OC(=O)CCC)C[C@@]2(C)OC(C)=O (stereo not given in full)
inactive

Report activity, negative = inhibition, nothing else, for this compound: OCc1nnc2n1-c1ccc(Cl)cc1C(c1ccccc1Cl)=NC2
inactive

Report activity, negative = inhibition, nothing else, for this compound: Cc1c(N[C@@H](c2nnc(-c3ccc(C#N)cc3)o2)[C@H](C)O)ccc(C#N)c1Cl
inactive

Report activity, negative = inhibition, nothing else, for this compound: CN(C(=O)C(c1ccccc1)c1ccccc1)[C@H](CN1CC[C@H](O)C1)c1ccccc1
inactive
